Known IC50 of a selection of compounds
Target: Bone morphogenetic protein 1 (Homo sapiens, UniProt P13497)
Sequence (P13497 whole entry, the tested form may be a part): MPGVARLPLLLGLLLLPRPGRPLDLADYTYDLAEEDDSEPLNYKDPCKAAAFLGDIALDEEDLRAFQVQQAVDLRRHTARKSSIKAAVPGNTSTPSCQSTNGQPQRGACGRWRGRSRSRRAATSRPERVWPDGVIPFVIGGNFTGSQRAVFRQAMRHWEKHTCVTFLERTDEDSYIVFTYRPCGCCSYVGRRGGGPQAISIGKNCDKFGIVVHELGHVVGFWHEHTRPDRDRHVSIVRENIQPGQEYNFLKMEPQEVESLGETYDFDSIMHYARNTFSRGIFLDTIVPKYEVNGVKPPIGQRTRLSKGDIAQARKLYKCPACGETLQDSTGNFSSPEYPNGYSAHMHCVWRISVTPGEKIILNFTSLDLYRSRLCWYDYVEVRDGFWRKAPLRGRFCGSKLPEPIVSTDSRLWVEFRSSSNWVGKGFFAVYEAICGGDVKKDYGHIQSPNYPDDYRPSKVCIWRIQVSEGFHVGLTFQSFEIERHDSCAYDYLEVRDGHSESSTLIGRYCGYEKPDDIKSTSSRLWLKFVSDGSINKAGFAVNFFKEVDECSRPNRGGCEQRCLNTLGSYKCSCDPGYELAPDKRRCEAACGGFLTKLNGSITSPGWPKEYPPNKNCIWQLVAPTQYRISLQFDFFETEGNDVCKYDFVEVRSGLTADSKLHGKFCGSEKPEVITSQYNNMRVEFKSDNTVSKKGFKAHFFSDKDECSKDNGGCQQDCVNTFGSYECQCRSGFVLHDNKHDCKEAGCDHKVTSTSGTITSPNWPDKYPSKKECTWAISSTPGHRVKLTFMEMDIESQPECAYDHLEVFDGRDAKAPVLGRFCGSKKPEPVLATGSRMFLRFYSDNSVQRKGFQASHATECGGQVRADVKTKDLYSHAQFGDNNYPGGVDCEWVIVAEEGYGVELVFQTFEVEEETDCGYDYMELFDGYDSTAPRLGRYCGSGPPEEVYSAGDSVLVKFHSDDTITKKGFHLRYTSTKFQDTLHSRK
Experiment: Inhibition of C-terminal FLAG-6x-His epitope tagged and N-terminal human RAGE signal sequence tagged human BMP1 (121 to 721 amino acids) expressed in CHO-E1a cells pre-incubated for 10 mins before promyostatin peptide substrate addition and measured after 60 mins using 0.5 nM BMP1 by FRET based assay
READOUT: IC50

* CCCCC[C@@H](C(=O)NCNC(=O)c1ccc(-c2cc(OCC)cc(P(=O)(Oc3ccccc3)Oc3ccccc3)c2)o1)[C@@H](CC)N(O)C=O | 126 to 316 nM
* CCCCC[C@@H](C(=O)NCNC(=O)c1ccc(-c2ccc(C(=O)N[C@@H](CC(=O)OC)C(=O)OC)c(OCC(=O)OC)c2)o1)[C@@H](CC)N(O)C=O | 126 to 316 nM
* CCCCC[C@@H](C(=O)NCNC(=O)c1ccc(-c2ccc(C(=O)N[C@@H](CC(=O)O)C(=O)OCOC(=O)c3ccccc3)c(OCC)c2)o1)[C@@H](CC)N(O)C=O | < 316 nM
* CCCCC[C@@H](C(=O)NCNC(=O)c1ccc(-c2ccc(C(=O)OCCCC)cc2)o1)[C@@H](CC)N(O)C=O | 126 to 316 nM
* CCCCC[C@@H](C(=O)NCNC(=O)c1ccc(-c2ccc(C(=O)N[C@@H](CC(=O)O)C(=O)OCC)c(OCC)c2)o1)[C@@H](CC)N(O)C=O | 126 to 316 nM
* CCCCC[C@@H](C(=O)NCNC(=O)c1ccc(-c2cc(OCC)cc(P(=O)(O)OCOC(=O)OC(C)C)c2)o1)[C@@H](CC)N(O)C=O | < 316 nM
